Measured TGI accompanies every entry in the list below.
Test system: ACHN renal
Assay: NCI tumour cell line growth inhibition, 48 h
Reply with just the number (in µM).

Illustrative cases are given below, each with its answer.
COc1ccc(N/N=C(\CCN(C)C)c2ccccc2)cc1	4.84
CN(C)CCNC(=O)c1cccc2c(Nc3ccc(S(N)(=O)=O)cc3)c3ccccc3nc12	5.2
CC(=O)Oc1cc2c(c3ncccc13)OC(C)(C)C2	23.9

# compound CN1CCN(c2cc(C(=O)Nc3cc4cc(-c5cnn(C)c5)ccc4cn3)ccn2)CC1 ; its TGI = 0.548

TGI reported for this compound C=C1C(=O)OC2/C=C(/C)C3CC(O)C(C)(CC(OC(=O)/C(C)=C/C)C12)O3 (configuration not stated) : 6.71

// TGI lookup, compound = CC1=CCC2C3(C)CCC2(C(C)C)C1C3 (configuration not stated) (tested in a mixture with another compound) , result: 36.9

src = PubChem BioAssay (NCI)
